From: ChEMBL document CHEMBL5620424

- experimental-system: Muscarinic acetylcholine receptor M4 (Homo sapiens)
- protocol-details: Positive allosteric modulation at human M4 mAChR expressed in Flp-In-CHO cells co-expressing CAMYEL biosensor assessed as change in ACh-mediated response incubated for 5 mins by BRET assay
- Type: cell-based
- condition-description: filed as positive allosteric modulator

chemical-structure | deltapEC50
CN1Cc2ccc(-c3ccncc3-c3cnn(CC4CCCC4)c3)cc2C1=O | 1.49
Cc1ccc(-c2cnn(CC(C)C)c2)c(-c2ccc3c(c2)C(=O)N(C)C3)n1 | 1.36
Cc1ccc(-c2cnn(Cc3ccccc3)c2)c(-c2ccc3c(c2)C(=O)N(C)C3)n1 | 1.87
Cc1ccc(-c2cnn(CC3CCOCC3)c2)c(-c2ccc3c(c2)C(=O)N(C)C3)n1 | 1.16
Cc1ccc(-c2cnn(CC3CCCC3)c2)c(-c2ccc3c(c2)NC(=O)C3)n1 | 1.24

----------
- experimental-system: Muscarinic acetylcholine receptor M4 (Homo sapiens)
- protocol-details: Positive allosteric modulation at human M4 mAChR expressed in Flp-In-CHO cells co-expressing CAMYEL biosensor assessed as change in maximum ACh-mediated response at 10 uM incubated for 5 mins by BRET assay relative to control
- Type: cell-based
- condition-description: filed as positive allosteric modulator
Emax below 60% gives not fulfilled; Emax at or above it gives fulfilled.

chemical-structure | label-class
CC(=O)Nc1cccc(-c2nc(C)ccc2-c2cnn(CC3CCCC3)c2)c1 | not fulfilled
Cc1ccc(-c2cnn(CC3CCC3)c2)c(-c2ccc3c(c2)C(=O)N(C)C3)n1 | fulfilled
Cc1ccc(-c2cnn(CC3CCCC3)c2)c(-c2cccc(N)c2)n1 | not fulfilled
Cc1ccc(-c2cnn(CC3CCCCC3)c2)c(-c2ccc3c(c2)C(=O)N(C)C3)n1 | fulfilled
Cc1ccc(-c2cnn(CC3CCCC3)c2)c(-c2ccc(N)cc2)n1 | fulfilled
Cc1ccc(-c2cnn(CC3CC3)c2)c(-c2ccc3c(c2)C(=O)N(C)C3)n1 | fulfilled
Cc1ccc(-c2cnn(CC3CCOCC3)c2)c(-c2ccc3c(c2)C(=O)N(C)C3)n1 | not fulfilled
Cc1ccc(-c2cnn(CC(C)C)c2)c(-c2ccc3c(c2)C(=O)N(C)C3)n1 | fulfilled
Cc1ccc(-c2cnn(CC3CCCC3)c2)c(-c2ccc3c(c2)C(=O)N(C)C3)n1 | not fulfilled
CN1Cc2ccc(-c3ccncc3-c3cnn(CC4CCCC4)c3)cc2C1=O | fulfilled
CN1Cc2ccc(-c3cnccc3-c3cnn(CC4CCCC4)c3)cc2C1=O | not fulfilled
Cc1ccc(-c2cnn(Cc3ccccc3)c2)c(-c2ccc3c(c2)C(=O)N(C)C3)n1 | fulfilled

----------
- experimental-system: Muscarinic acetylcholine receptor M4 (Homo sapiens)
- Sequence (whole entry): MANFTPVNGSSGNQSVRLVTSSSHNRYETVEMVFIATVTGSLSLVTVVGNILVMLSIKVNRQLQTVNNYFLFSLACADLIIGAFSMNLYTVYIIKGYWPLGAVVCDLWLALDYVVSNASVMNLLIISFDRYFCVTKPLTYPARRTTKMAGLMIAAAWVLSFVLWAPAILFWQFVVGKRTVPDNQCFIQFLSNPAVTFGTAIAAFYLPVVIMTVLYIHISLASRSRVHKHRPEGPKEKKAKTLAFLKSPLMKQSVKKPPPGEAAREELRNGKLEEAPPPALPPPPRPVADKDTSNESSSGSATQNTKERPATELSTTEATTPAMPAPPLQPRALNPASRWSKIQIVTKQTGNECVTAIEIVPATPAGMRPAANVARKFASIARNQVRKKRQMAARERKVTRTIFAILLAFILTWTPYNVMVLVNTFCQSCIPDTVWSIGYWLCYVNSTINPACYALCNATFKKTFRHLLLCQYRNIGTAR
- protocol-details: Positive allosteric modulation at human M4 mAChR expressed in Flp-In-CHO cells co-expressing CAMYEL biosensor assessed as change in maximum ACh-mediated response at 10 uM incubated for 5 mins by BRET assay relative to control
- Type: cell-based
Overview of reported Emax across a group of molecules:

chemical-structure | Emax
Cc1ccc(-c2ccc3c(c2)C(=O)N(C)C3)c(-c2cnn(CC3CCOCC3)c2)n1 | 3.58%
Cc1ccc(-c2cnn(CC3CCCC3)c2)c(-c2ccccc2)n1 | 21.8%
Cc1ccc(-c2cnn(CC3CCCC3)c2)c(-c2ccc(N)c([N+](=O)[O-])c2)n1 | 5.6%

----------
- experimental-system: Muscarinic acetylcholine receptor M4 (Homo sapiens) (UniProt P08173)
- Sequence (whole entry): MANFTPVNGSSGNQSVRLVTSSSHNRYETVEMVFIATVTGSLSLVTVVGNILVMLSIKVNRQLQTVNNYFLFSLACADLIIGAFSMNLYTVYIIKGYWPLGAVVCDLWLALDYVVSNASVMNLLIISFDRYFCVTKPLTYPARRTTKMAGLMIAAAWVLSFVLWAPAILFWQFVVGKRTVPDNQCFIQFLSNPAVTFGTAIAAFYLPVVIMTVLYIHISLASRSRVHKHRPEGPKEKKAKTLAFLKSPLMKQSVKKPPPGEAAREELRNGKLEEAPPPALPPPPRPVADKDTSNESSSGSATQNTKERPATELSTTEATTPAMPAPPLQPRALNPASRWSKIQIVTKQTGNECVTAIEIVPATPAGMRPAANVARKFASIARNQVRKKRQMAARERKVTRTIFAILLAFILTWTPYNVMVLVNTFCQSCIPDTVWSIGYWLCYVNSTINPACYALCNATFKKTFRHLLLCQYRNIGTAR
- protocol-details: Positive allosteric modulation at Rluc-tagged human M4 mAChR expressed in Flp-In-CHO cells co-expressing eYFP-tagged beta-arrestin 2 assessed as ACh-mediated beta-arrestin 2 recruitment co-operativity (log alpha beta) incubated for 5 mins by luminometry
- Assay type: cell-based
- condition-description: filed as positive allosteric modulator
Overview of reported log(activity) across a group of compounds:
observation-type: log(activity)

chemical-structure | quantitative-readout
Cc1ccc(-c2cnn(CC3CCCC3)c2)c(-c2ccc(F)c(F)c2)n1 | 1.55
Cc1ccc(-c2cnn(CC3CC3)c2)c(-c2ccc3c(c2)C(=O)N(C)C3)n1 | 1.29
Cc1ccc(-c2cnn(CC3CCCC3)c2)c(-c2ccc3c(c2)C(=O)N(C)C3)n1 | 1.94
Cc1ccc(-c2cnn(CC3CCCC3)c2)c(-c2ccc(N)c([N+](=O)[O-])c2)n1 | 1.18

----------
- experimental-system: Muscarinic acetylcholine receptor M4 (Homo sapiens)
- protocol-details: […] human M4 mAChR expressed in Flp-In-CHO cells co-expressing CAMYEL biosensor assessed as change in baseline response at 10 uM incubated for 5 mins by BRET assay relative to control
- Assay type: cell-based
- condition-description: filed as positive allosteric modulator
Activity below 90% gives F; Activity at or above it gives T.

chemical-structure | experimental-system | label-class
Cc1ccc(-c2cnn(CC3CCC3)c2)c(-c2ccc3c(c2)C(=O)N(C)C3)n1 | Muscarinic acetylcholine receptor M4 (Homo sapiens) | T
Cc1ccc(-c2cnn(CC3CCCCC3)c2)c(-c2ccc3c(c2)C(=O)N(C)C3)n1 | Muscarinic acetylcholine receptor M4 (Homo sapiens) | T
Cc1ccc(-c2cnn(CC3CC3)c2)c(-c2ccc3c(c2)C(=O)N(C)C3)n1 | Muscarinic acetylcholine receptor M4 (Homo sapiens) | T
CN1Cc2ccc(-c3nccnc3-c3cnn(CC4CCCC4)c3)cc2C1=O | Muscarinic acetylcholine receptor M4 (Homo sapiens) | F
CN1Cc2ccc(-c3cnccc3-c3cnn(CC4CCCC4)c3)cc2C1=O | Muscarinic acetylcholine receptor M4 (Homo sapiens) | F
CCCN1Cc2ccc(-c3nc(C)ccc3-c3cnn(CC4CCCC4)c3)cc2C1=O | Muscarinic acetylcholine receptor M4 (Homo sapiens) | F
Cc1ccc(-c2cnn(CC3CCOCC3)c2)c(-c2ccc3c(c2)C(=O)N(C)C3)n1 | Muscarinic acetylcholine receptor M4 (Homo sapiens) | F

----------
- experimental-system: UniProt P08173
- protocol-details: Positive allosteric modulation at human M4 mAChR expressed in Flp-In-CHO cells co-expressing CAMYEL biosensor assessed as change in ACh-mediated response incubated for 5 mins by BRET assay
- Assay type: cell-based
- condition-description: filed as positive allosteric modulator

chemical-structure | deltapEC50
Cc1ccc(-c2cnn(CC3CCCC3)c2)c(-c2ccc(F)c(F)c2)n1 | 0.76
Cc1ccc(-c2cnn(CC3CCCC3)c2)c(-c2ccc3c(c2)C(=O)NC3)n1 | 2.57
CC(=O)Nc1cccc(-c2nc(C)ccc2-c2cnn(CC3CCCC3)c2)c1 | 1.63
Cc1ccc(-c2cnn(CC3CC3)c2)c(-c2ccc3c(c2)C(=O)N(C)C3)n1 | 1.64
Cc1ccc(-c2cnn(CC3CCN(C(=O)OC(C)(C)C)CC3)c2)c(-c2ccc3c(c2)C(=O)N(C)C3)n1 | 0.6
Cc1ccc(-c2cnn(CC3CCC3)c2)c(-c2ccc3c(c2)C(=O)N(C)C3)n1 | 1.05
CN1Cc2ccc(-c3nccnc3-c3cnn(CC4CCCC4)c3)cc2C1=O | -0.34
Cc1ccc(-c2cnn(CC3CCCC3)c2)c(-c2ccc3c(c2)C(=O)N(C)C3)n1 | 1.48
Cc1ccc(-c2cnn(CC3CCCC3)c2)c(-c2ccc(N)cc2)n1 | 1.31
CN1Cc2ccc(-c3cnccc3-c3cnn(CC4CCCC4)c3)cc2C1=O | 0.17
Cc1ccc(-c2ccc3c(c2)C(=O)N(C)C3)c(-c2cnn(CC3CCOCC3)c2)n1 | 0.58
Cc1ccc(-c2cn(CC3CCCC3)nn2)c(-c2ccc3c(c2)C(=O)N(C)C3)n1 | 1.07
Cc1ccc(-c2cnn(CC3CCCC3)c2)c(-c2ccccc2)n1 | 1.15
